experiment: Cytotoxicity against human Col1 cells after 3 days by sulforhodamine B assay; format: cell-based; conditions: read-out: ED50
As shown below, each of these compounds has a reported CC50 at 72 h value.
Respond with the bare value in µg/mL.

INSERT INTO measurements (compound, val) VALUES
  ('COc1ccc2cc1Oc1ccc(cc1)C[C@H]1c3cc(c(OC)cc3CCN1C)Oc1c(O)c(OC)cc3c1[C@@H](C2)NCC3', 4.7),
  ('COc1ccc2cc1Oc1ccc(cc1)C[C@H]1c3c(cc(OC)c4c3Oc3cc5c(cc3O4)CCN=C5C2)CCN1C', 5);

# CC50 at 72 h (compound: CCN(CC)CCCC(C)Nc1ccnc2cc(Cl)ccc12 (configuration not stated) ) is 10.1

# CC50 at 72 h (compound: `COc1ccc2cc1Oc1ccc(cc1)C[C@H]1c3cc(c(OC)cc3CCN1C)Oc1c(OC)c(OC)cc3c1[C@@H](C2)NCC3` ) is 7.6

# CC50 at 72 h (compound: `COc1ccc2cc1Oc1ccc(cc1)C[C@H]1c3c(cc4c(c3Oc3cc5c(cc3OC)CCN(C)[C@@H]5C2)OCO4)CCN1C` ) is 9

# CC50 at 72 h (compound: OC(c1cc(C(F)(F)F)nc2c(C(F)(F)F)cccc12)C1CCCCN1 (configuration not stated) ) is 1

# CC50 at 72 h (compound: `COc1ccc2cc1Oc1ccc(cc1)C[C@H]1c3c(cc(OC)c4c3Oc3cc5c(cc3O4)CCN(C)[C@@H]5C2)CCN1C` ) is 3.6
